Readings of Activity for the listed molecules
# Test system: U-937
# Assay Name: Cytotoxicity against human U937 cells assessed as LDH leakage at 30 uM after 48 hrs by microplate reader assay relative to control
# Format: cell-based
# Condition Context: u-937, 48 h
Outcome Measure: Activity (%)

# Compound Structure String, Assay System, Outcome Measure, Recorded Measurement
records = [
    ("O=C1N=C(c2ccc(Cl)cc2)S/C1=C\\c1ccc(Oc2ccccc2)cc1", "U-937", "Activity", 12),
    ("COc1ccc(/C=C2\\SC(c3ccc4ccccc4c3)=NC2=O)cc1", "U-937", "Activity", 4.1),
    ("COc1ccc(/C(C)=C2\\SC(c3ccc(C)cc3)=NC2=O)cc1", "U-937", "Activity", 106),
    ("COc1ccc(/C=C2\\SC(c3ccc(Cl)cc3)=NC2=O)c2ccccc12", "U-937", "Activity", 12.2),
    ("COc1ccc(C2=NC(=O)/C(=C/c3ccc(C)cc3)S2)cc1", "U-937", "Activity", 15.8),
    ("CCCOc1ccc(/C=C2\\SC(c3ccc(Cl)cc3)=NC2=O)cc1", "U-937", "Activity", 48.9),
    ("COc1ccc(/C=C2\\SC(c3cccc(NC(=O)C45CC6CC(CC(C6)C4)C5)c3)=NC2=O)cc1", "U-937", "Activity", 8.4),
    ("COc1ccc(/C=C2\\SC(c3ccc(C)cc3)=NC2=O)cc1", "U-937", "Activity", 2.7),
    ("CC(=O)N(O)C/C=C/c1cccc(Oc2ccccc2)c1", "U-937", "Activity", 0.8),
]

====

# Assay System: Polyunsaturated fatty acid 5-lipoxygenase (Homo sapiens)
# Sequence (P09917 whole entry): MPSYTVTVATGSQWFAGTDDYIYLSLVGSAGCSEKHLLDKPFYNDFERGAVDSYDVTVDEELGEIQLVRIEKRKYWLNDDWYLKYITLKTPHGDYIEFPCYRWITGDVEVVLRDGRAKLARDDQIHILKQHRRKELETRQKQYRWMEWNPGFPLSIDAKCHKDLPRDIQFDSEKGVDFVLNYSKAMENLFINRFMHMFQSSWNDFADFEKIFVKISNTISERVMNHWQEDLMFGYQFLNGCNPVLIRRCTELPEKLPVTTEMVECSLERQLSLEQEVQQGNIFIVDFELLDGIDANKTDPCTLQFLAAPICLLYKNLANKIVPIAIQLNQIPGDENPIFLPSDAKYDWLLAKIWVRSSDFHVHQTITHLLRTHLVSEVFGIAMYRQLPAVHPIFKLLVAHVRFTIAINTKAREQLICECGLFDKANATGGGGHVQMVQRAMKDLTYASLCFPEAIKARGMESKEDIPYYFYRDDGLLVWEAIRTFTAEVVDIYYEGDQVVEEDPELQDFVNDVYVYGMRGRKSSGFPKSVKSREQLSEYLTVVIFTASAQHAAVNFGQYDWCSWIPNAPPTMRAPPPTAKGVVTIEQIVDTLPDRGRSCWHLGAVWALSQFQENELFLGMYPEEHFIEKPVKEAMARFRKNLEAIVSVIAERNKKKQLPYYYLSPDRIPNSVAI
# Assay Name: Inhibition of 5-lipoxygenase in human polynuclear leukocytes assessed as inhibition of A23187-stimulated 5-LO product formation preincubated for 15 mins measured after 10 mins by HPLC analysis
# Assay type: cell-based

# Compound Structure String, Endpoint Unit, IC50
records = [
    ("COc1ccc(C2=NC(=O)/C(=C/c3cc4ccccc4[nH]3)S2)cc1", "nM", 670),
]

====

# Assay System: Polyunsaturated fatty acid 5-lipoxygenase (Homo sapiens)
# Assay Name: Inhibition of 5-lipoxygenase in cell free S100 freshly isolated human PMNL cells assessed as inhibition of 5-LO product formation preincubated for 15 mins measured after 10 mins by HPLC analysis

# Compound Structure String, IC50 / nM
records = [
    ("COc1ccc(C2=NC(=O)/C(=C/c3cc4ccccc4[nH]3)S2)cc1", 570),
]

Measured values drawn from ChEMBL document CHEMBL2029222 for this set.
